Multi-source literature compilation: pIC50 on UniProt Q99685.
pIC50: −log10 of the molar value.
observable: pIC50

>  <chemical_structure>
Cc1nc2cc(C(=O)N3CC(N4CCN(C(=O)c5nccs5)CC4)C3)ccc2n1-c1ccccc1

>  <value_prefix>
=

>  <value_observed>
6.51

$$$$
>  <chemical_structure>
O=C(c1cc[nH]c1)N1CC(N2CCN(C(=O)c3cc4cc(C(F)(F)F)ccc4s3)CC2)C1

>  <value_prefix>
=

>  <value_observed>
6.53

$$$$
>  <chemical_structure>
[2H]C([2H])([2H])c1cc(CN2CCCC23CCN(C(=O)n2ccc(NC(C)=O)n2)CC3)ccc1Cl

>  <value_prefix>
≥

>  <value_observed>
7.00

$$$$
>  <chemical_structure>
CC1(C)COc2cc(C3CN(C(=O)N4CC[C@@H]5OCC(=O)N[C@@H]5C4)C3)ccc21

>  <value_prefix>
=

>  <value_observed>
8.15

$$$$
>  <chemical_structure>
O=C1CO[C@H]2CCN(C(=O)N3CCC(c4ccnc5c4CCCC5)CC3)C[C@H]2N1

>  <value_prefix>
=

>  <value_observed>
6.24

$$$$
>  <chemical_structure>
O=C(c1ccc2c(ccn2-c2ccc(F)cc2)c1)N1CC(N2CCN(C(=O)c3cocn3)CC2)C1

>  <value_prefix>
=

>  <value_observed>
7.85

$$$$
>  <chemical_structure>
O=C(c1cscn1)N1CC(N2CCN(C(=O)c3cc4cc(C(F)(F)F)ccc4[nH]3)CC2)C1

>  <value_prefix>
=

>  <value_observed>
6.10

$$$$

* * *

Please find below IC50 measurements for MAGL (Homo sapiens, UniProt Q99685), combined from several publications.
observable: IC50

>  <chemical_structure>
CS(=O)(=O)c1ccc(-c2ccc(C3CN(C(=O)CC[C@@H]4COC(=O)N4)C3)cn2)c(Cl)c1

>  <observable>
IC50

>  <value_observed>
160 nM

$$$$
>  <chemical_structure>
O=C(c1cccc(-c2ccn[nH]2)c1Cl)N1CCN2C[C@@](O)(c3ccc(Cl)cc3)CC[C@@H]2C1

>  <observable>
IC50

>  <value_observed>
4.31 nM

$$$$
>  <chemical_structure>
Cc1c(C(=O)N2CCN(C3CN(C(=O)c4cscn4)C3)CC2)sc2cc(C(F)(F)F)ccc12

>  <observable>
IC50

>  <value_observed>
99 nM

$$$$
>  <chemical_structure>
Cc1ccc2oc(N3CCN(C(=O)c4cnc(OCC5(C(F)(F)F)CC5)c(OCC5(C(F)(F)F)CC5)c4)CC3)nc2n1

>  <observable>
IC50

>  <value_observed>
55 nM

$$$$

* * *

Below are pIC50 values for UniProt Q99685 collected from several publications.
pIC50: −log10 of the molar value.

>  <chemical_structure>
O=C(c1ccc(-c2ccc(C(F)(F)F)s2)cc1)N1CCN(C2CN(C(=O)c3cscn3)C2)CC1

>  <pIC50>
7.60

$$$$
>  <chemical_structure>
O=C(c1ccc(-c2cccc(C(F)(F)F)c2)cc1)N1CCN(C2CN(C(=O)c3cocn3)C2)CC1

>  <pIC50>
6.08

$$$$
>  <chemical_structure>
CC1(C)CCOc2ccc(C3CN(C(=O)N4CC[C@@H]5OCC(=O)N[C@@H]5C4)C3)cc21

>  <pIC50>
7.58

$$$$
>  <chemical_structure>
O=C(c1nccs1)N1CCN(C2CN(C(=O)c3cccc4oc(-c5ccc(Cl)cc5)nc34)C2)CC1

>  <pIC50>
6.59

$$$$
>  <chemical_structure>
COc1cc(C(=O)N2CCN(c3nc4nc(C)ccc4o3)CC2)ccc1-c1cn(CC(C)(C)C)nn1

>  <pIC50>
7.89

$$$$
>  <chemical_structure>
COc1cccc(C(=O)N2CCN3C[C@@H](c4ccc(F)c(C5CC5)c4)OC[C@@H]3C2)c1Cl

>  <pIC50>
7.02

$$$$
>  <chemical_structure>
Cc1nc(-c2cccc(Cl)c2)sc1C(=O)N1CC(N2CCN(C(=O)c3nccs3)CC2)C1

>  <pIC50>
7.65

$$$$
